B1: HDV Ribozyme (parent)
chain: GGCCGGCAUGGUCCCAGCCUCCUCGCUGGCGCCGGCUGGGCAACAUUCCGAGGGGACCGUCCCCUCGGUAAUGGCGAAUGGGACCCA

variants of: B1; assay: self-cleavage, relative activity (ratio to wild type); higher = more cleavage; co-transcriptional
Entries and their measured self-cleavage follow.
Lab note: write the figure by itself, no unit.

// solved cases for self-cleavage follow
G11C C21G = 0
C41A A70C = 0.527

Task: Quickly give me recorded self-cleavage for U47G G52C
Output: 0.895

Task: Quickly give me recorded self-cleavage for G39A A45G
Output: 0.629

Task: Quickly give me recorded self-cleavage for G67U G81A
Output: 0.254
